# Tested on: Hepatitis C virus
# measurement_description: Antiviral activity against Hepatitis C virus subtype 1b expressing NS3 V36M mutant infected in HuH7 cells after 48 hrs by luciferase reporter assay
# Format: functional, organism-based, Hepacivirus hominis
# condition_context: genotype 1b, Huh-7, 48 h
pEC50: −log10 of the molar value.
readout_kind: pEC50

| molecule | study_system | readout_value |
| --- | --- | --- |
| COc1ccc2c(O[C@@H]3C[C@H]4C(=O)N[C@]5(C(=O)O)C[C@H]5/C=C\CCCCC[C@H](NC(=O)OC5CCCC5)C(=O)N4C3)cc(-c3csc(NC(C)C)n3)nc2c1 | Hepatitis C virus | 8.62 |
| CCC[C@H](NC(=O)[C@@H]1[C@H]2CCC[C@H]2CN1C(=O)[C@@H](NC(=O)[C@@H](NC(=O)c1cnccn1)C1CCCCC1)C(C)(C)C)C(=O)C(=O)NC1CC1 | Hepatitis C virus | 6.05 |
| COc1ccc2c(O[C@@H]3C[C@H]4C(=O)N[C@]5(C(=O)NS(=O)(=O)C6CC6)C[C@H]5/C=C\CCCCN(C)C(=O)[C@@H]4C3)cc(-c3nc(C(C)C)cs3)nc2c1C | Hepatitis C virus | 7.70 |
| CC(C)(C)NC(=O)N[C@H](C(=O)N1C[C@H]2[C@@H]([C@H]1C(=O)NC(CC1CCC1)C(=O)C(N)=O)C2(C)C)C(C)(C)C (some centres undefined) | Hepatitis C virus | 6.66 |
